- measurement.protocol: photoluminescence quantum yield (fraction); solvent given as SMILES
- test.parameters: in Cc1ccccc1
measure: photoluminescence quantum yield
Keep the answer to the number alone.

Example results:
molecule	photoluminescence quantum yield
CCCOc1ccc(/C=C/C=C/C=C/c2ccc([N+](=O)[O-])cc2)cc1	0.54
COc1cc(/C=C/c2ccncc2)c(OC)cc1C=O	0.09

-- ask Look at this molecule and give its reported photoluminescence quantum yield. `Cc1cc(C)c(C2=C3C=C(c4ccc(C(C)(C)C)cc4)C(c4ccc(C(C)(C)C)cc4)=[N+]3[B-](F)(F)n3c2cc(-c2ccc(C(C)(C)C)cc2)c3-c2ccc(C(C)(C)C)cc2)c(C)c1`
-- reply 0.78

-- ask Look at this molecule and give its reported photoluminescence quantum yield. `Nc1nc(/C=C/c2ccc(N(c3ccccc3)c3ccccc3)cc2)cc(/C=C/c2ccc(N(c3ccccc3)c3ccccc3)cc2)n1`
-- reply 0.88

###

Reported photoluminescence quantum yield values for the following compounds.
- measurement.protocol: photoluminescence quantum yield (fraction); solvent given as SMILES
- test.parameters: in ClC(Cl)Cl

Example results:
compound	photoluminescence quantum yield
COC(=O)C(Cc1ccc2oc(-c3ccc(N(C)C)cc3)nc2c1)NC(=O)OC(C)(C)C (configuration not stated)	0.68
COc1ccc(-c2oc3cccc4c5c(-c6ccc(OC)c(OC)c6)c(=N)oc6cccc(c2c34)c65)cc1OC	0.41

-- ask Look at this compound and give its reported photoluminescence quantum yield. `CCCCCCCCC1(CCCCCCCC)c2cc3c(cc2-c2sc(-c4ccc(/C=C5\SC(N6CCCCC6)=NC5=O)c5nsnc45)cc21)C(CCCCCCCC)(CCCCCCCC)c1cc(-c2ccc(/C=C4\SC(N5CCCCC5)=NC4=O)c4nsnc24)sc1-3`
-- reply 0.144

-- ask Look at this compound and give its reported photoluminescence quantum yield. CCCCC1(c2ccccc2)Nc2c(-c3ccc(N(C)C)cc3)ccc(-c3ccc(N(C)C)cc3)c2N=C1c1ccccc1 (configuration not stated)
-- reply 0.16

-- ask Look at this compound and give its reported photoluminescence quantum yield. `CC(C)c1cccc(C(C)C)c1-n1c(=O)c2ccc3c4ccc5c(=O)n(-c6c(C(C)C)cccc6C(C)C)c(=O)c6cc7c(-c8ccccc8)nc8cc(c1=O)c2c3c8c7c4c56`
-- reply 0.74

-- ask Look at this compound and give its reported photoluminescence quantum yield. O=P1(c2ccccc2)C(c2cc(C(F)(F)F)cc(C(F)(F)F)c2)=Cc2c3ccc4cccc5ccc(c6cc(-c7ccc(N(c8ccccc8)c8ccccc8)cc7)n1c26)c3c45 (configuration not stated)
-- reply 0.49

-- ask Look at this compound and give its reported photoluminescence quantum yield. `N#Cc1cc2ccc(O)cc2oc1=N`
-- reply 0.0342

-- ask Look at this compound and give its reported photoluminescence quantum yield. `Cc1cc(C2=Cc3cccc[n+]3[B-](F)(F)O2)ccc1N(C)C`
-- reply 0.688

-- ask Look at this compound and give its reported photoluminescence quantum yield. `CC(C)(C)/C=C/C1=[N+]2C(=C(c3c4ccccc4cc4ccccc34)c3ccc(/C=C/C(C)(C)C)n3[B-]2(F)F)C=C1`
-- reply 0.58

-- ask Look at this compound and give its reported photoluminescence quantum yield. `CN(C)c1ccc(-c2ccc(-c3ccc(N(C)C)cc3)c3nc(-c4ccccc4)c(-c4ccccc4)nc23)cc1`
-- reply 0.3

###

- measurement.protocol: photoluminescence quantum yield (fraction); solvent given as SMILES
- test.parameters: in CN(C)C=O
Reported photoluminescence quantum yield values for the following compounds.
Keep the answer to the number alone.

Example results:
> print(dat)
                            chemical.string                          measure  result.value
1  Cc1nc2cccc(-c3nc4ccc(Cl)cc4o3)c2c(=O)[nH]1  photoluminescence quantum yield         0.275
2  CCN(CC)c1ccc2c(-c3ccc(S(=O)(=O)O)cc3S(=O)(=O)[O-])c3ccc(=[N+](CC)CC)cc-3oc2c1  photoluminescence quantum yield          0.54

-- ask Look at this compound and give its reported photoluminescence quantum yield. `COc1ccc(-c2nc(C)cc(-c3ccc(-n4c5ccccc5c5ccccc54)cc3)n2)cc1`
-- reply 0.68

-- ask Look at this compound and give its reported photoluminescence quantum yield. `CCOC(=O)/C(C#N)=C/c1cc2c3ccccc3n(C)c2cc1OC`
-- reply 0.005

-- ask Look at this compound and give its reported photoluminescence quantum yield. `CC1=C(C(C)(C)C)C(C)=[N+]2C1=C(C)c1c(C)c(C(C)(C)C)c(C)n1[B-]2(F)F`
-- reply 0.35

-- ask Look at this compound and give its reported photoluminescence quantum yield. `COc1cc(/C=C2/SC(=O)NC2=O)ccc1O`
-- reply 0.023

-- ask Look at this compound and give its reported photoluminescence quantum yield. `COc1cc(/C=C/C(=O)CC(=O)/C=C/c2ccc(O)c(OC)c2)ccc1O`
-- reply 0.022

-- ask Look at this compound and give its reported photoluminescence quantum yield. `CC(=O)c1ccc2ccc3cccc4ccc1c2c34`
-- reply 0.002

-- ask Look at this compound and give its reported photoluminescence quantum yield. `CN(C)c1ccc(C2=Cc3c4ccccc4c4ccccc4[n+]3[B-](F)(F)O2)cc1`
-- reply 0.323

-- ask Look at this compound and give its reported photoluminescence quantum yield. `CCCCCCC(CCCCCC)N1C(=O)c2cccc3c(-c4cc(OC)c(OC)c(OC)c4)ccc(c23)C1=O`
-- reply 0.0065
